# measurement protocol: NCI Yeast Anticancer Drug Screen. Data for the rad52 strain (AID 147)
# assay context: S. cerevisiae rad52 mutant growth inhibition; at 11.0 µM
About 79,000 compounds went through this panel and 15% of them were active in at least one assay; those are over-represented in the sample as a whole. The source made the active and inactive calls. Rule as the data show it: active = growth inhibition above about 70%; inactive = the rest.
Parameter call: string, one of y = active, n = inactive

Examples with answers:
| compound | qualitative label |
| --- | --- |
| O=c1[nH]c2ccccc2c2nc3ccccc3n12 | n |
| COc1ccc(C(C#N)=C2C=CC(=NO)C=C2)cc1 | y |
| O=Cc1coc2ccccc2c1=O | n |
| Cc1ccc(CNc2ccc(Br)cc2)cc1 | n |
| CNc1nc(C)nc2c1cnn2-c1ccc([N+](=O)[O-])cc1 | n |
| CC(=O)N1C(=O)/C(=C\C(=O)c2ccc([N+](=O)[O-])cc2)c2ccccc21 | n |
| CCc1nc(N)nc(N)c1-c1ccc(NCCCCCCN)c([N+](=O)[O-])c1 | n |
| CN(C)CCN1C(=O)c2cccc3cc([N+](=O)[O-])cc(c23)C1=O | n |
| CC1=CC2C(C(C)C)CC1C1C(=O)OC(=O)C21 (configuration not stated) | n |
| Clc1nc(C(Cl)Cl)nc2sc3c(c12)CCCC3 | n |

Query: I'd appreciate the recorded outcome for O=C1NC(c2c(Cl)cccc2Cl)Nc2ccccc21 (configuration not stated) from this test.
Result: n

Query: I'd appreciate the recorded outcome for ClCCn1c(CCl)nc2ccc(Cl)cc21 from this test.
Result: n
